Source listed as patent US20230183218A1.

The following molecules are listed with their measured remaining activity at 30 µM values.
# Target entity: Rat M4 (Rattus norvegicus, UniProt P08485)
# Construct: expressed in transfected cells; host or cells: CHO-K1 (ATCC), stably co-expressing chimeric G protein Gqi5
# Sequence (P08485 whole entry): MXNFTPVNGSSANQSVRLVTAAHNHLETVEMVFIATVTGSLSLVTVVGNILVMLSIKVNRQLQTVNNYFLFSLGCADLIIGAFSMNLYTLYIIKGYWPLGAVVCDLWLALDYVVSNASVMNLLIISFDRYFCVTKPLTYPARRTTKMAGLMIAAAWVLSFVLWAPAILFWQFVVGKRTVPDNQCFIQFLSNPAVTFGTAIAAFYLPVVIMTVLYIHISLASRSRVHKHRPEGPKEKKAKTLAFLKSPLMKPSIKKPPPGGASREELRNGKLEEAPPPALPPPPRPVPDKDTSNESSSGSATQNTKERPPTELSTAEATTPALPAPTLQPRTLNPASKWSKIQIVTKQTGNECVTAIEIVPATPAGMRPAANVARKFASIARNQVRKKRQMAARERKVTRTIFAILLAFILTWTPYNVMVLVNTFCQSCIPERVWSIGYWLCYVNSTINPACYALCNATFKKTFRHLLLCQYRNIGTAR
# Assay details: mAChR M4 cell-based functional assay (calcium flux, antagonist mode vs EC80 acetylcholine), rat M4/Gqi5/CHO-K1 cells
# Study conditions: CHO-K1; % ACh maximum at 30 μM; rat M4; read-out: Rat M4 Emin (%)
Endpoint: remaining activity at 30 µM (%)

molecule=Fc1ccc(Cl)c(-c2ccc(N[C@H]3C[C@@H]4CN(C5CCCCCC5)C[C@@H]4C3)nn2)c1 target_entity="Rat M4 (Rattus norvegicus, UniProt P08485)" number=3
molecule="Fc1ccc(Cl)c(-c2ccc(N[C@H]3C[C@@H]4CN(C5CCCOC5)C[C@@H]4C3)nn2)c1 (some centres unmarked)" target_entity="Rat M4 (Rattus norvegicus, UniProt P08485)" number=17
molecule="Cc1cc(CN2C[C@H]3C[C@H](Nc4ccc([S+]([O-])c5ccccc5)nn4)C[C@H]3C2)ccc1F (some centres unmarked)" target_entity="Rat M4 (Rattus norvegicus, UniProt P08485)" number=3
molecule="CC(=O)Nc1ccc(-c2ccc(N[C@H]3C[C@@H]4CN(C5CCOC(C)(C)C5)C[C@@H]4C3)nn2)cn1 (some centres unmarked)" target_entity="Rat M4 (Rattus norvegicus, UniProt P08485)" number=6
molecule=Cc1cc2c(cc1CN1C[C@H]3C[C@H](Nc4ccc(S(=O)(=O)C5CCCCC5)nn4)C[C@H]3C1)OCO2 target_entity="Rat M4 (Rattus norvegicus, UniProt P08485)" number=6
molecule=Fc1ccc(Cl)c(-c2ccc(N[C@H]3C[C@@H]4CN(C5CCC6(CCOCC6)CC5)C[C@@H]4C3)nn2)c1 target_entity="Rat M4 (Rattus norvegicus, UniProt P08485)" number=3
molecule=Fc1ccc(Cl)c(-c2ccc(N[C@H]3C[C@@H]4CN(C5CCCC5)C[C@@H]4C3)nn2)c1 target_entity="Rat M4 (Rattus norvegicus, UniProt P08485)" number=4
molecule="CC1(C)CC(N2C[C@H]3C[C@H](Nc4ccc(-c5cc(F)ccc5F)nn4)C[C@H]3C2)CCO1 (some centres unmarked)" target_entity="Rat M4 (Rattus norvegicus, UniProt P08485)" number=5
